# protocol description: BET inhibitor-based combinations targeting novel dependencies in MECOM-rearranged (r) AML: UCSD-AML1 cell line (AID 2202235); also: nearly all actives have a fitted effect of over 40% in size
# condition notes: UCSD-AML1 AML cells viability, CellTiter-Glo, 48 h; series mostly up to 46 µM
Records with an inconclusive call do not appear. Calls of active or inactive are those of the source. Calls follow the shape of the dose curve; as a rule, active = well fitted inhibition curve with a large enough effect; inconclusive = small, poorly fitted or top-dose-only effect; inactive = no such curve, though single readings can be large or run the other way.
Entry note: the call must match one of active, inactive

Example entries and their recorded answers appear below.
INSERT INTO assay_data (molecule, qualitative_label) VALUES
  ('CN(C)CCN1C(=O)c2cccc3cc(NC(N)=O)cc(c23)C1=O', 'active'),
  ('COc1cc2c(cc1OC(C)C)[C@H](c1ccc(Cl)cc1)N(c1ccc(N(C)CC3CCC(N4CCN(C)C(=O)C4)CC3)cc1)C(=O)C2 (some centres undefined)', 'active');

Lab note: next molecule to report on.
[ask] Lab log entry: C[C@@H](C(=O)Nc1ccc(Cl)cc1)C1CCC(c2ccnc3ccc(F)cc23)CC1 (some centres undefined) — outcome as called in the assay?
[reply] inactive

Data provenance: PubChem BioAssay (NCATS)
